- assay_summary: in vivo
- assay_setup: male, Sprague-Dawley, rat, F (absolute bioavailability)
parameter: bioavailability (%)
Numbers only; they are read as %.

The value of bioavailability measured for the compound `C=C1CC/C=C(\C)CC[C@@H]2[C@@H]1CC2(C)C` turned out to be 2.11
